Entries and their koff values follow.
- target or system: human CD127 ECD (human) (UniProt P16871)
- experiment: SPR, BIAcore 3000; antibody captured on anti-human IgG (Fc), CD127 ECD 16-512 nM as analyte, 1:1 Langmuir fit

binder	unit	koff
1A11 Chimera (antibody, human IgG1, V domains shown) VH: EVQLQQSGPELLKPGASMKISCKASGYSFTGYTMNWVKQSHGKNLEWIGLINPYNGVTSYNQKFKGKATLTVAKSSSTAYMELLSLTSEDSAVYYCARGDGNYWYFDVWGAGTTVTVSS VL: EIVLTQSPAITAASLGQKVTITCSASSSVTYMHWYQQKSGTSPKPWIYEISKLASGVPVRFSGSGSGTSYSLTISSMEAEDAAIYYCQEWNYPYTFGGGTKLEIK	s⁻¹	0.000298
1A11 H3L5 (antibody, V domains shown) VH: QVQLVQSGAEVKKPGASVKVSCKASGYTFTGYTMNWVRQAPGQGLEWMGLINPYNGVTSYNQKFKGRVTLTRDTSISTAYMELSRLRSDDTAVYYCARGDGNYWYFDVWGQGTTVTVSS VL: EIVLTQSPATLSLSPGERATLSCSASSSVTYMHWYQQKPGQAPRPWIYEISKLASGIPARFSGSGSGTDYTLTISSLEPEDFAVYYCQEWNYPYTFGGGTKVEIK	s⁻¹	0.00607
6A3 H4-61_7L27 (antibody, V domains shown) VH: QVQLQESGPGLVKPSETLSLTCTVSGYSVTTDYAWNWIRQPPGKGLEWIGYIFYSGSTTYTPSLKSRVTISRDTSKNQFSLKLSSVTAADTAVYYCARGGYDVNYFDYWGQGTTVTVSS VL: DIQMLQSPSSLSASVGDRVTITCLASQTIGYWLAWYQQKPGKAPKLLIYAATRLADGVPSRFSGSGSGTMFTLTISSLQPEDFATYYCQQFFSYPWTFGGGTKVEIK	s⁻¹	0.00104
1A11 H3L6 (antibody, V domains shown) VH: QVQLVQSGAEVKKPGASVKVSCKASGYTFTGYTMNWVRQAPGQGLEWMGLINPYNGVTSYNQKFKGRVTLTRDTSISTAYMELSRLRSDDTAVYYCARGDGNYWYFDVWGQGTTVTVSS VL: EIVLTQSPATLSLSPGERATLSCSASSSVTYMHWYQQKPGQAPRPWIYEISKLASGVPARFSGSGSGTDYTLTISSLEPEDFAVYYCQEWNYPYTFGGGTKVEIK	s⁻¹	0.00282
